Entry source: a melting point compilation (Tetko et al.)

measurement label: melting point

> print(dat)
                                   compound         result
1                       O=C(O)CCCc1ccccc1Br    87 to 89 °C
2                    Cc1nc(S)n(C2CCCCC2)c1C  218 to 220 °C
3     Cc1c(Cl)cc(S(N)(=O)=O)cc1[N+](=O)[O-]  181 to 183 °C
4  O=C(CCl)NCC1Cc2ccccc2O1 (stereo not given)    94 to 96 °C
5         O=C(O)c1ccc(NC(=O)c2ccc(Br)o2)cc1  276 to 278 °C
